Taken from paper PMC9127750.

Test system: OCI-AML5
Assay: cells
Conditions: Homo sapiens, OCI-AML-5, read-out: IC50 ARN22089
parameter: pIC50
Please express pIC50 as -log10 of the molar concentration.

Input line: Return value of pIC50 for input CN(C)c1cccc(Nc2cc(-c3ccccc3)nc(C3CCNCC3)n2)c1 [ARN22089] , no commentary.
Output line: 4.82

###

Test system: Caki-1
Assay: cells
Conditions: Homo sapiens, CAKI-1, read-out: IC50 ARN22089
parameter: IC50 (µM)
Quick note: give the figure in µM, leave out the unit.

Input line: Return reported IC50 for target or system Caki-1, item CN(C)c1cccc(Nc2cc(-c3ccccc3)nc(C3CCNCC3)n2)c1 .
Output line: 11

###

Test system: WM3248
Experiment: cells
Conditions: Homo sapiens, WM3248, read-out: IC50 WM3248
parameter: pIC50
Please express pIC50 as -log10 of the molar concentration.

Input line: Return reported pIC50 for target or system WM3248, item Clc1ccc(Nc2cc(-c3ccccc3)nc(C3CCCNC3)n2)cc1 (stereo not shown) [ARN21698] .
Output line: 5.07

###

System: RERF-LC-MS
Test: cells
Conditions: read-out: IC50 ARN22089
parameter: IC50 (µM)
Quick note: give the figure in µM, leave out the unit.

Input line: Return value of IC50 for input CN(C)c1cccc(Nc2cc(-c3ccccc3)nc(C3CCNCC3)n2)c1 [ARN22089] , no commentary.
Output line: 12

###

System: U2OS
Experiment: cells
Details: Homo sapiens, read-out: IC50 ARN22089
parameter: IC50 (µM)
Quick note: give the figure in µM, leave out the unit.

Input line: Return value of IC50 for input CN(C)c1cccc(Nc2cc(-c3ccccc3)nc(C3CCNCC3)n2)c1 , no commentary.
Output line: 11

###

Test system: NCI-H1838
Test: cells
Conditions: Homo sapiens, NCI-H1838, read-out: IC50 ARN22089
parameter: IC50 (µM)
Quick note: give the figure in µM, leave out the unit.

Input line: Return value of IC50 for input CN(C)c1cccc(Nc2cc(-c3ccccc3)nc(C3CCNCC3)n2)c1 [ARN22089] , no commentary.
Output line: 17

###

Test system: SJSA-1
Experiment: cells
Details: Homo sapiens, SJSA-1, read-out: IC50 ARN22089
parameter: IC50 (µM)
Quick note: give the figure in µM, leave out the unit.

Input line: Return reported IC50 for target or system SJSA-1, item CN(C)c1cccc(Nc2cc(-c3ccccc3)nc(C3CCNCC3)n2)c1 [ARN22089] .
Output line: 9.5

###

System: SNU840
Experiment: cells
Conditions: SNU-840, read-out: IC50 ARN22089
parameter: IC50 (µM)
Quick note: give the figure in µM, leave out the unit.

Input line: Return value of IC50 for input CN(C)c1cccc(Nc2cc(-c3ccccc3)nc(C3CCNCC3)n2)c1 [ARN22089] , no commentary.
Output line: 6.5

###

Test system: A2058
Assay: cells
Settings: Homo sapiens, A2058, read-out: IC50 ARN22089
parameter: pIC50
Please express pIC50 as -log10 of the molar concentration.

Input line: Return value of pIC50 for input CN(C)c1cccc(Nc2cc(-c3ccccc3)nc(C3CCNCC3)n2)c1 , no commentary.
Output line: 5.43

###

System: U-937
Assay: cells
Conditions: Homo sapiens, U-937, read-out: IC50 ARN22089
parameter: pIC50
Please express pIC50 as -log10 of the molar concentration.

Input line: Return value of pIC50 for input CN(C)c1cccc(Nc2cc(-c3ccccc3)nc(C3CCNCC3)n2)c1 [ARN22089] , no commentary.
Output line: 5.46

###

Test system: HEC-1-B
Experiment: cells
Settings: Homo sapiens, read-out: IC50 ARN22089
parameter: pIC50
Please express pIC50 as -log10 of the molar concentration.

Input line: Return reported pIC50 for target or system HEC-1-B, item CN(C)c1cccc(Nc2cc(-c3ccccc3)nc(C3CCNCC3)n2)c1 .
Output line: 4.74

###

Test system: SK-N-SH
Assay: cells
Conditions: Homo sapiens, read-out: IC50 ARN22089
parameter: IC50
Remember to quote the unit after the number.

Input line: Return reported IC50 for target or system SK-N-SH, item CN(C)c1cccc(Nc2cc(-c3ccccc3)nc(C3CCNCC3)n2)c1 .
Output line: 8.1 µM

###

Assay: In vitro microsomal stability assay
Type: in vitro ADME
Settings: pH 7.4; human liver microsomes; read-out: half-life after incubation with human microsomes
Protocol: 10 mM DMSO stock solution of each compound was pre-incubated at 37°C for 15 min with liver microsomes from all the three species (mouse, rat, human) in 0.1M Tris-HCl buffer (pH 7.4). The final concentration was 4.6 μM. […] The percentage of test compound remaining at each time point relative to the amount observed at t = 0 was calculated. The half-lives (t½) were determined by a one-phase decay equation using a non-linear regression of compound concentration versus time.
parameter: half-life at […] (h)
Quick note: give the figure in h, leave out the unit.

Input line: Return value of half-life at […] for input CN(C)c1cccc(Nc2cc(-c3ccccc3)nc(C3CCNCC3)n2)c1 , no commentary.
Output line: 8.5

###

System: HCC1569
Test: cells
Details: Homo sapiens, HCC1569, read-out: IC50 ARN22089
Protocol: Cancer cell line viability assay was performed using a CellTiterGlo assay. Cells were cultured in their appropriate media and seeded in white multi-well plates. For the assays, cells were incubated with compound at 37°C overnight, and a CellTiterGlo assay was performed to quantify viable cells.
parameter: IC50
Remember to quote the unit after the number.

Input line: Return value of IC50 for input CN(C)c1cccc(Nc2cc(-c3ccccc3)nc(C3CCNCC3)n2)c1 , no commentary.
Output line: 11 µM

###

System: EFO-27
Experiment: cells
Settings: Homo sapiens, EFO-27, read-out: IC50 ARN22089
parameter: IC50 (µM)
Quick note: give the figure in µM, leave out the unit.

Input line: Return value of IC50 for input CN(C)c1cccc(Nc2cc(-c3ccccc3)nc(C3CCNCC3)n2)c1 [ARN22089] , no commentary.
Output line: 12

###

Tested on: A375
Experiment: cells
Conditions: Homo sapiens, A-375, read-out: IC50 ARN22089
parameter: pIC50
Please express pIC50 as -log10 of the molar concentration.

Input line: Return value of pIC50 for input CN(C)c1cccc(Nc2cc(-c3ccccc3)nc(C3CCNCC3)n2)c1 [ARN22089] , no commentary.
Output line: 5.35

###

Experiment: Thermodynamic solubility
Type: physicochemical
Conditions: phosphate buffered saline, PBS pH 7.4, 25°C
parameter: solubility thermodynamic at 24 h

Input line: Return value of solubility thermodynamic at 24 h for input CN(C)c1cccc(Nc2cc(-c3ccccc3)nc(C3CCNCC3)n2)c1 [ARN22089] , no commentary.
Output line: 268 µM

###

Tested on: SW480
Assay: cells
Settings: Homo sapiens, SW480, read-out: IC50 SW480
parameter: IC50 (µM)
Quick note: give the figure in µM, leave out the unit.

Input line: Return reported IC50 for target or system SW480, item CN(C)c1cccc(Nc2cc(-c3ccccc3)nc(C3CCNCC3)n2)c1 .
Output line: 8.61

###

System: WM3248, SKMel3, A375, SW480, and SKM28
Assay: cells
Conditions: Homo sapiens, read-out: IC50 across cancer cell lines
parameter: IC50

Input line: Return value of IC50 for input Clc1ccc(Nc2cc(-c3ccccc3)nc(C3CCCNC3)n2)cc1 (stereo not shown) , no commentary.
Output line: 6.3 to 10.9 µM
